target_or_test_system: GSK3α (GST-full length GSK3α) (Homo sapiens (Human), UniProt P49840)
Sequence (P49840 whole entry): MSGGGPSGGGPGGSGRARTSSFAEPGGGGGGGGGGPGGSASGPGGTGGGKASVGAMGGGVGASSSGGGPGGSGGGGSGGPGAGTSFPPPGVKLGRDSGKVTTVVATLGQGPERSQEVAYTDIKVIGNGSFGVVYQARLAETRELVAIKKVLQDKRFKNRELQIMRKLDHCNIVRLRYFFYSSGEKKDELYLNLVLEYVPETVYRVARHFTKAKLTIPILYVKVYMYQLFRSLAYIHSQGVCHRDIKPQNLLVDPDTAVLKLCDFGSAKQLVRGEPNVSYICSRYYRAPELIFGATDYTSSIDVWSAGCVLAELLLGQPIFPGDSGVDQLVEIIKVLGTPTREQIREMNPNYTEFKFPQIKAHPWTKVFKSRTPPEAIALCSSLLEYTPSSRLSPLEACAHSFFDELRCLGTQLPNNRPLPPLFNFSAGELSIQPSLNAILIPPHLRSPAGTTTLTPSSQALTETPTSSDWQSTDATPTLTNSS
procedure_text: GSK3α TR-FRET kinase assay
Assay type: biochemical
experimental_parameters: read-out: GSK3-A (TR-FRET 1 mM ATP); GMean; IC50; 1 mM ATP; geometric mean
property_name: IC50

| compound | target_or_test_system | property_name | observed |
| --- | --- | --- | --- |
| CC[C@@]1(c2cccc(-c3ccncc3C(F)(F)F)c2)C2=C(CC(C)(C)C2=O)Nc2n[nH]cc21 | GSK3α (GST-full length GSK3α) (Homo sapiens (Human), UniProt P49840) | IC50 | 0.1 to 1 µM |
| CCC1(c2cccc(-c3c(F)cncc3OC)c2)C2=C(CC(C)(C)CC2=O)Nc2n[nH]cc21 (stereo not shown) | GSK3α (GST-full length GSK3α) (Homo sapiens (Human), UniProt P49840) | IC50 | ≤ 0.1 µM |
| CCC1(c2cccc(Br)c2)C2=C(CC(C)(C)CC2=O)Nc2n[nH]cc21 (stereo not shown) | GSK3α (GST-full length GSK3α) (Homo sapiens (Human), UniProt P49840) | IC50 | 0.1 to 1 µM |
| CCC1(c2cccc(-c3ccnn3C)c2)C2=C(CC(C)(C)CC2=O)Nc2n[nH]c(C)c21 (stereo not shown) | GSK3α (GST-full length GSK3α) (Homo sapiens (Human), UniProt P49840) | IC50 | ≤ 0.1 µM |

---

target_or_test_system: GSK3b (GST-full length GSK3b) (Homo sapiens (Human))
procedure_text: GSK3b TR-FRET kinase assay
Type: biochemical
experimental_parameters: 1 nM GSK3b, 2 μM ATP, 30 minute preincubation, Table 16; read-out: GSK3-B TR-FRET BIOCHEMICAL (TR-FRET); IC50
property_name: IC50

| molecule | target_or_test_system | observed |
| --- | --- | --- |
| CC1(C)CC(=O)C2=C(C1)Nc1n[nH]cc1C21CN(Cc2ccccc2)C1 | GSK3b (GST-full length GSK3b) (Homo sapiens (Human)) | > 5 µM |
| CC1(C)CC(=O)C2=C(C1)Nc1n[nH]cc1C21CN(CC2CCCC2)C1 | GSK3b (GST-full length GSK3b) (Homo sapiens (Human)) | > 5 µM |
| CCC1(c2cccc(-c3ccnc(OC)c3C)c2)C2=C(CC(C)(C)CC2=O)Nc2n[nH]cc21 (stereo not drawn) | GSK3b (GST-full length GSK3b) (Homo sapiens (Human)) | 0.1 to 1 µM |
| CC1(C)CC(=O)C2=C(C1)Nc1n[nH]cc1C21CCN(S(=O)(=O)C2CCOCC2)CC1 | GSK3b (GST-full length GSK3b) (Homo sapiens (Human)) | ≤ 0.1 µM |
| CC1(C)CC(=O)C2=C(C1)Nc1n[nH]cc1C21CCCCC1=O (stereo not drawn) | GSK3b (GST-full length GSK3b) (Homo sapiens (Human)) | > 5 µM |
| CC[C@@]1(c2cccc(-c3ccnn3C)c2)C2=C(CC3(CCS(=O)(=O)CC3)NC2=O)Nc2n[nH]cc21 | GSK3b (GST-full length GSK3b) (Homo sapiens (Human)) | > 5 µM |
| CC[C@]1(c2cccc(C(F)(F)F)c2)C2=C(CC(C)(C)NC2=O)Nc2n[nH]c(F)c21 | GSK3b (GST-full length GSK3b) (Homo sapiens (Human)) | 0.1 to 1 µM |
| CCC1(c2cccc(-c3cc(C)nn3C)c2)C2=C(CC(C)(C)CC2=O)Nc2n[nH]cc21 (stereo not drawn) | GSK3b (GST-full length GSK3b) (Homo sapiens (Human)) | 0.1 to 1 µM |
| CCC1(c2cccc(N3CCOCC3)c2)C2=C(CC(C)(C)CC2=O)Nc2n[nH]c(C)c21 (stereo not drawn) | GSK3b (GST-full length GSK3b) (Homo sapiens (Human)) | 1 to 5 µM |
| CCC1(c2cccc(N3CCOc4ncccc43)c2)C2=C(CC(C)(C)CC2=O)Nc2n[nH]cc21 (stereo not drawn) [Compound 918279] | GSK3b (GST-full length GSK3b) (Homo sapiens (Human)) | ≤ 0.1 µM |
| CCN(c1cccc(C2(CC)C3=C(CC(C)(C)CC3=O)Nc3n[nH]cc32)c1)c1cccnc1C (stereo not drawn) | GSK3b (GST-full length GSK3b) (Homo sapiens (Human)) | 1 to 5 µM |
| CCC1(c2cccc(-c3ccncc3C)c2)C2=C(CC(C)(C)CC2=O)Nc2n[nH]c(C)c21 (stereo not drawn) [Compound 883991] | GSK3b (GST-full length GSK3b) (Homo sapiens (Human)) | ≤ 0.1 µM |
| CC[C@@]1(c2cccc(-c3cnn(CCN4CCCC4)c3)c2)C2=C(CC(C)(C)NC2=O)Nc2n[nH]cc21 | GSK3b (GST-full length GSK3b) (Homo sapiens (Human)) | > 5 µM |
| CC[C@]1(c2cccc(N(C)c3cnccn3)c2)C2=C(CC(C)(C)CC2=O)Nc2n[nH]cc21 | GSK3b (GST-full length GSK3b) (Homo sapiens (Human)) | 1 to 5 µM |
| CC[C@@]1(c2cccc(-c3cn(C)nc3C(C)C)c2)C2=C(CC(C)(C)CC2=O)Nc2n[nH]c(C)c21 | GSK3b (GST-full length GSK3b) (Homo sapiens (Human)) | ≤ 0.1 µM |

---

target_or_test_system: GSK3b (GST-full length GSK3b) (Homo sapiens (Human), UniProt P49841)
Sequence (P49841 whole entry): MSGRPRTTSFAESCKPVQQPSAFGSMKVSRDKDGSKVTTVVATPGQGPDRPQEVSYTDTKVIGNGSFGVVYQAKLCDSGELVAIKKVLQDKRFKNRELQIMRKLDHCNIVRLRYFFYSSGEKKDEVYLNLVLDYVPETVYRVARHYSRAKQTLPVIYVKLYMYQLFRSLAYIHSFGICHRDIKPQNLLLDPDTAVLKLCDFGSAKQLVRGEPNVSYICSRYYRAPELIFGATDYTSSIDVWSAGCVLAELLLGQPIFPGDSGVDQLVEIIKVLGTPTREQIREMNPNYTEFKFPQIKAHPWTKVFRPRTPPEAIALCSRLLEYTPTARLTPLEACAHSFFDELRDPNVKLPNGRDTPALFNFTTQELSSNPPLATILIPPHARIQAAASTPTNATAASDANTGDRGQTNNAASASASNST
procedure_text: GSK3b TR-FRET kinase assay
Type: biochemical
experimental_parameters: 1 nM GSK3b, 2 μM ATP, 30 minute preincubation, Table 16; read-out: GSK3-B TR-FRET BIOCHEMICAL (TR-FRET)
Listing of recorded IC50 by entry.

| molecule | IC50 |
| --- | --- |
| COc1cc(S(=O)(=O)N2CCC3(CC2)C2=C(CC(C)(C)CC2=O)Nc2n[nH]cc23)ccc1F | ≤ 100 nM |
| CCC1(c2cccc(-c3ccnc(C)c3C)c2)C2=C(CC(C)(C)CC2=O)Nc2n[nH]c(C(F)(F)F)c21 (centres unmarked) [Compound 947329] | ≤ 100 nM |
| COc1ccc(F)c(S(=O)(=O)N2CCC3(CC2)C2=C(CC(C)(C)CC2=O)Nc2n[nH]cc23)c1 | ≤ 100 nM |
| CC1(C)CC(=O)C2=C(C1)Nc1n[nH]cc1[C@]21CC[C@H](c2ccncc2)CC1 | ≤ 100 nM |
| C[C@@H]1C[C@]2(CCN1S(C)(=O)=O)C1=C(CC(C)(C)CC1=O)Nc1n[nH]cc12 | 100 to 1000 nM |
| CC[C@]1(c2cccc(-c3ccnc(C)c3OC)c2)C2=C(CC(C)(C)CC2=O)Nc2n[nH]cc21 | ≤ 100 nM |
| CC[C@@H]1C[C@@]2(CO1)C1=C(CC(C)(C)CC1=O)Nc1n[nH]cc12 | 1000 to 5000 nM |
| C[C@@H]1CCC[C@@]2(C1)C1=C(CC(C)(C)CC1=O)Nc1n[nH]cc12 [Compound 874537] | 100 to 1000 nM |
| CC1(C)CC(=O)C2=C(C1)Nc1n[nH]cc1C21CN(S(=O)(=O)C2CCCC2)C1 | ≤ 100 nM |
| CC1(C)CC(=O)C2=C(C1)Nc1n[nH]cc1[C@@]21CO[C@@H](c2ccccc2)C1 | 100 to 1000 nM |
| CC1(C)CC(=O)C2=C(C1)Nc1n[nH]cc1C21CCN(S(=O)(=O)c2cccc(Cl)c2F)CC1 | ≤ 100 nM |
| CC1(C)CC(=O)C2=C(C1)Nc1n[nH]cc1C21CCN(S(=O)(=O)c2ccc(F)cc2)CC1 | ≤ 100 nM |
| COc1ccc(C)c(S(=O)(=O)N2CCC3(CC2)C2=C(CC(C)(C)CC2=O)Nc2n[nH]cc23)c1 | 100 to 1000 nM |
| Cc1cnccc1[C@H]1CC[C@@]2(CC1)C1=C(CC(C)(C)CC1=O)Nc1n[nH]cc12 | 100 to 1000 nM |
| CCC1(c2cccc(-c3cnnn3C)c2)C2=C(CC(C)(C)CC2=O)Nc2n[nH]cc21 (centres unmarked) [Compound 947398] | ≤ 100 nM |
| Cc1cc(-c2cccc3c2CCC[C@@]32C3=C(CC(C)(C)CC3=O)Nc3n[nH]cc32)ccn1 | > 5000 nM |
| Cn1nc(C(F)(F)F)cc1S(=O)(=O)N1CCC2(CC1)C1=C(CC(C)(C)CC1=O)Nc1n[nH]cc12 | ≤ 100 nM |
| CCC1(c2cccc(-c3ccnc(C)c3)c2)C2=C(Nc3n[nH]cc31)C(F)C(C)(C)CC2=O (centres unmarked) [Compound 946101] | > 5000 nM |
| O=C1C[C@]2(CCOC2)CC2=C1C1(CCOCC1)c1c[nH]nc1N2 | 100 to 1000 nM |
| CCN(c1cccc([C@@]2(CC)C3=C(CC(C)(C)CC3=O)Nc3n[nH]cc32)c1)c1ncccn1 | 1000 to 5000 nM |
| CC1(C)CC(=O)C2=C(C1)Nc1n[nH]cc1[C@]21CCCc2c(-c3ccncc3)cccc21 | ≤ 100 nM |
| CCC1(c2cccc(-c3ccncc3)c2)C2=C(Nc3n[nH]cc31)C(F)C(C)(C)CC2=O (centres unmarked) [Compound 959342] | > 5000 nM |
| CC[C@@]1(c2cccc(C(F)(F)F)c2)C2=C(Nc3n[nH]cc31)C(C)(C)N(C)C2=O | > 5000 nM |
| CCC1(c2cccc(-c3ccnc(C)c3C)c2)C2=C(CC(C)(C)CC2=O)Nc2n[nH]c(C(F)(F)F)c21 (centres unmarked) [Compound 947328] | 100 to 1000 nM |
| CC[C@@H]1C[C@]2(CO1)C1=C(CC(C)(C)CC1=O)Nc1n[nH]cc12 | 1000 to 5000 nM |
| CCC1(c2cccc(OCC(F)F)c2)C2=C(CC(C)(C)CC2=O)Nc2n[nH]cc21 (centres unmarked) | ≤ 100 nM |
